// reported pIC50 per item
test.target: Phosphatidylinositol 4,5-bisphosphate 3-kinase catalytic subunit gamma isoform (Homo sapiens, UniProt P48736)
Sequence (P48736 whole entry, canonical isoform): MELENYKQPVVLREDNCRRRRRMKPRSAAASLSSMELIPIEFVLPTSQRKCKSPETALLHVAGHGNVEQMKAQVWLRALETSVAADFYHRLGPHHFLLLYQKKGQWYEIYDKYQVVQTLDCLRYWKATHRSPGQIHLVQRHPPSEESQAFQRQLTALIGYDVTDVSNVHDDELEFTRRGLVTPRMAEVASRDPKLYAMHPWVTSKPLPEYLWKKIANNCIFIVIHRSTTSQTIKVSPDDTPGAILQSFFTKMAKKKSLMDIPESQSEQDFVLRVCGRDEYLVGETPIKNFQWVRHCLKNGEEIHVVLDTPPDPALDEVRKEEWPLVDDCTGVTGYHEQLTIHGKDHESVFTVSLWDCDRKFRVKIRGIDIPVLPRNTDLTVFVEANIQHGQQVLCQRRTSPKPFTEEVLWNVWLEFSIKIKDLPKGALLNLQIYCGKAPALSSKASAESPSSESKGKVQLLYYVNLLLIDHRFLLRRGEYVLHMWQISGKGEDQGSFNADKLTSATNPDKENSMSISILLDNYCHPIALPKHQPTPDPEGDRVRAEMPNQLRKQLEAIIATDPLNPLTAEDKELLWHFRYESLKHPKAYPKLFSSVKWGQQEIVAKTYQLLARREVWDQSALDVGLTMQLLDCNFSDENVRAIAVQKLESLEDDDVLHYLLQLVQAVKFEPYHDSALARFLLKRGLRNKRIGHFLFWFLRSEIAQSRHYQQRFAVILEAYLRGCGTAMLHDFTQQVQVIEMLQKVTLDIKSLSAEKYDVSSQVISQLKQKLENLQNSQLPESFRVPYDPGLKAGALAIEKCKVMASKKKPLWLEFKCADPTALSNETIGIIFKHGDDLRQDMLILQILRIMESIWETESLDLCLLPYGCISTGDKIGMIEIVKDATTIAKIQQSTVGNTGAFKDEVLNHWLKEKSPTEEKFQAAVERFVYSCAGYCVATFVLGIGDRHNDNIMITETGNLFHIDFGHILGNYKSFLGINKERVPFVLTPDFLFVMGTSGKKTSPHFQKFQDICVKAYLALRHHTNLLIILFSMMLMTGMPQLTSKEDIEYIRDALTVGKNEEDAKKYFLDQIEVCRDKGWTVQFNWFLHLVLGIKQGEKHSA
experiment.summary: Inhibition of PI3K-gamma (unknown origin) assessed as decrease in ATP consumption using phosphatidylinositol bisphosphate and 10 uM ATP as substrate measured after 60 mins by luminescence assay
pIC50: −log10 of the molar value.

{"mol": "CC[C@H](C)[C@H](N)C(=O)N1CCN(c2nc(N3CCOCC3)nc(-n3c(C(F)F)nc4ccccc43)n2)CC1", "pIC50": "< 5.00"}

The compound `N[C@@H](Cc1ccc(O)cc1)C(=O)N1CCN(c2nc(N3CCOCC3)nc(-n3c(C(F)F)nc4ccccc43)n2)CC1` showed pIC50 equal to < 5.00

# compound `C[C@@H](N)C(=O)N1CCN(c2nc(N3CCOCC3)nc(-n3c(C(F)F)nc4ccccc43)n2)CC1` ; its pIC50 = 5.70

* * *

test.target: Phosphatidylinositol 4,5-bisphosphate 3-kinase catalytic subunit beta isoform (Homo sapiens, UniProt P42338, D862Q)
Sequence (P42338 whole entry D862Q, canonical isoform): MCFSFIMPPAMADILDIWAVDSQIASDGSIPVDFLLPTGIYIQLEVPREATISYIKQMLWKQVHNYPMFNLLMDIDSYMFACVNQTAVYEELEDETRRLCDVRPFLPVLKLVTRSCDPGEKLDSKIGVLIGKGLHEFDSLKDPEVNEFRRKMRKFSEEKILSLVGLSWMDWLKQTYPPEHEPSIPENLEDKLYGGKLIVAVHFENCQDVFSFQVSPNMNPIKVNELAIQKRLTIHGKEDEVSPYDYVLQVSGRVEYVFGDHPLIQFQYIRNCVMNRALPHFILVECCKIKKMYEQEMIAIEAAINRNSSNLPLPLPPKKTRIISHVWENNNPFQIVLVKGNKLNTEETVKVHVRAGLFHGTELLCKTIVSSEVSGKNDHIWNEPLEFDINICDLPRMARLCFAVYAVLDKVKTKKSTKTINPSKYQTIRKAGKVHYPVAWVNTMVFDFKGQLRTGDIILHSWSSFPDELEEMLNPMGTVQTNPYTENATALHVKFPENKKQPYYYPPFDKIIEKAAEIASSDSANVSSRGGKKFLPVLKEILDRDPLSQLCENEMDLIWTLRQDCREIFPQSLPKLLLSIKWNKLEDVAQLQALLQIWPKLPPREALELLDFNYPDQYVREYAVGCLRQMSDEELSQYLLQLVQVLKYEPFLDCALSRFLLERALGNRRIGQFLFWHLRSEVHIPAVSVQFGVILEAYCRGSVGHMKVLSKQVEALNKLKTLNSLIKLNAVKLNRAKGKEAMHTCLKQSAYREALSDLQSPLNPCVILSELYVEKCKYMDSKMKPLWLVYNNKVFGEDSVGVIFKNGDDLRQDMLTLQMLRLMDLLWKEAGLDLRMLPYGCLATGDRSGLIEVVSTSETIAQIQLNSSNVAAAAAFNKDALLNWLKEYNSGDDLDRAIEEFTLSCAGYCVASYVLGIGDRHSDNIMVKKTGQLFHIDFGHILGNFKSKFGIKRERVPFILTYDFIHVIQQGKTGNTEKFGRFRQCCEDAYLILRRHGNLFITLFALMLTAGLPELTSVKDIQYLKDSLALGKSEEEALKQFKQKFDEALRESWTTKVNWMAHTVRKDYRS
experiment.summary: Inhibition of recombinant PI3K-beta D862Q mutant (unknown origin) expressed in baculovirus infected Sf21 cells assessed as decrease in ATP consumption using phosphatidylinositol bisphosphate and 100 uM ATP as substrate measured after 60 mins by luminescence assay
attribute.measured: IC50 (nM)
Dear colleague, please return just the value in nM, with no unit written.

Recorded results for 2 molecules are shown here.
{"mol": "CC[C@H](C)[C@H](N)C(=O)N1CCN(c2nc(N3CCOCC3)nc(-n3c(C(F)F)nc4ccccc43)n2)CC1", "unit.symbol": "nM", "observed.measurement": 1400}
{"mol": "C[C@H](N)C(=O)N1CCN(c2nc(N3CCOCC3)nc(-n3c(C(F)F)nc4ccccc43)n2)CC1", "unit.symbol": "nM", "observed.measurement": 890}

With those in mind, consider the next molecule.
Briefly, IC50 measured for `N[C@@H](Cc1ccccc1)C(=O)N1CCN(c2nc(N3CCOCC3)nc(-n3c(C(F)F)nc4ccccc43)n2)CC1` : 6000

* * *

test.target: Phosphatidylinositol 4,5-bisphosphate 3-kinase catalytic subunit delta isoform (Homo sapiens)
Sequence (O00329 whole entry, canonical isoform): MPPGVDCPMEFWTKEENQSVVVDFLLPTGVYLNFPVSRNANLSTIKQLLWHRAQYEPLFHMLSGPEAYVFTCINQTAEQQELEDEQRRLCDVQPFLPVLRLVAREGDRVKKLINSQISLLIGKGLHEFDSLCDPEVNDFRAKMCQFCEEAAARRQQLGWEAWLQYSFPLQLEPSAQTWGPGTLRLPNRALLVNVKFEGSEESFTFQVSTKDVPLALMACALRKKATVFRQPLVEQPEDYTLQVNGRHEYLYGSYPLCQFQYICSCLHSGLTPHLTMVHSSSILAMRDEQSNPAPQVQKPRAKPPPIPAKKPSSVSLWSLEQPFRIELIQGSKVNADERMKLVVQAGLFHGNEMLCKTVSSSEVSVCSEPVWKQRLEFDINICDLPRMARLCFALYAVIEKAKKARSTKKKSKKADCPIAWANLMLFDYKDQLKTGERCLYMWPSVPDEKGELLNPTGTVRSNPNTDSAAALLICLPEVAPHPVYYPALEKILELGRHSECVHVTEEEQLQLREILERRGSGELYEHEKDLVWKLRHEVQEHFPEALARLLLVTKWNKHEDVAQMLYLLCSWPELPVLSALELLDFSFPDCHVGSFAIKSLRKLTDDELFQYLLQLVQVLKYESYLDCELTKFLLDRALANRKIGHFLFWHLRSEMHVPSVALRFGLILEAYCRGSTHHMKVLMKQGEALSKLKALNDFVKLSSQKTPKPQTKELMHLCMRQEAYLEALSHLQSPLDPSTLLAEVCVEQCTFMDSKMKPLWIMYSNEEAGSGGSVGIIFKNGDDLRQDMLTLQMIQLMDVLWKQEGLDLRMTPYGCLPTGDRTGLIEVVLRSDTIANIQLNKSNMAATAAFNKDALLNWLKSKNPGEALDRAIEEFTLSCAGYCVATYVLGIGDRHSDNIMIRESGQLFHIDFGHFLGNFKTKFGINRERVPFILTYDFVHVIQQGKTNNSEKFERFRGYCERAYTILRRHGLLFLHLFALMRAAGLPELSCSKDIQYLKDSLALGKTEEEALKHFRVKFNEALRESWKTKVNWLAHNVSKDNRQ
experiment.summary: Inhibition of PI3K-delta (unknown origin) assessed as decrease in ATP consumption using phosphatidylinositol bisphosphate and 10 uM ATP as substrate measured after 60 mins by luminescence assay
attribute.measured: IC50 (nM)

# example entries with known answers
{"mol": "CC[C@H](C)[C@H](N)C(=O)N1CCN(c2nc(N3CCOCC3)nc(-n3c(C(F)F)nc4ccccc43)n2)CC1", "IC50 (nM)": 1000}
{"mol": "N[C@@H](Cc1ccc(O)cc1)C(=O)N1CCN(c2nc(N3CCOCC3)nc(-n3c(C(F)F)nc4ccccc43)n2)CC1", "IC50 (nM)": 1200}
{"mol": "NCCCC[C@H](N)C(=O)N1CCN(c2nc(N3CCOCC3)nc(-n3c(C(F)F)nc4ccccc43)n2)CC1", "IC50 (nM)": 670}

1 = C[C@@H](N)C(=O)N1CCN(c2nc(N3CCOCC3)nc(-n3c(C(F)F)nc4ccccc43)n2)CC1
2 = NCC(=O)N1CCN(c2nc(N3CCOCC3)nc(-n3c(C(F)F)nc4ccccc43)n2)CC1
Determine, for 1 and 2 , which has the greater value of IC50. Kindly state the label of the option you pick. 2

* * *

test.target: Phosphatidylinositol 4,5-bisphosphate 3-kinase catalytic subunit alpha isoform (Homo sapiens)
Sequence (P42336 whole entry, canonical isoform): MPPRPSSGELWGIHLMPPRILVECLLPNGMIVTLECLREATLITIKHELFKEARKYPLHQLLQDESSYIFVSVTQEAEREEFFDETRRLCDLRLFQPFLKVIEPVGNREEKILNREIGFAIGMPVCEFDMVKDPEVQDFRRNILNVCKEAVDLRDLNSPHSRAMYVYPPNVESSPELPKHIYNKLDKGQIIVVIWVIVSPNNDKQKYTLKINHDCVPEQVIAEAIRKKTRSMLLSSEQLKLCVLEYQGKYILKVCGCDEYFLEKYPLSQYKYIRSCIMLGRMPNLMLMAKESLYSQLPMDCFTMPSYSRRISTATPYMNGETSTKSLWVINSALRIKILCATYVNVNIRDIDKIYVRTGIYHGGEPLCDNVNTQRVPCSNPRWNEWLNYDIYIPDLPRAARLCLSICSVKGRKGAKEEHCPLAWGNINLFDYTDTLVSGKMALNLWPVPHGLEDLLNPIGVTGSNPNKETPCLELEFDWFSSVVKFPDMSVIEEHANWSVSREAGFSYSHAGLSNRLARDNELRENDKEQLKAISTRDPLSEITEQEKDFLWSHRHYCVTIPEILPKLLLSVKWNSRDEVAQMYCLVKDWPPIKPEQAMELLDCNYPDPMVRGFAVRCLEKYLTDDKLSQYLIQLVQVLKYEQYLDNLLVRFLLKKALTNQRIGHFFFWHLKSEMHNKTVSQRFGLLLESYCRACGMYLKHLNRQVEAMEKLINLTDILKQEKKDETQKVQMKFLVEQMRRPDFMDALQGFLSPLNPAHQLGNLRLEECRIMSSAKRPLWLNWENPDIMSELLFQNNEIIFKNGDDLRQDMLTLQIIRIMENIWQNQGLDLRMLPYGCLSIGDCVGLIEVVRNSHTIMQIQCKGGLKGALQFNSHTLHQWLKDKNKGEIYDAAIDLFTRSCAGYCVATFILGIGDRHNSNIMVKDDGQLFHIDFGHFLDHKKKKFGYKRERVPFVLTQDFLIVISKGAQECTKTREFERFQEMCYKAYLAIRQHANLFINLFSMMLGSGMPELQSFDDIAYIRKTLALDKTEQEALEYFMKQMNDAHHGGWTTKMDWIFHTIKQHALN
experiment.summary: Inhibition of PI3K-alpha (unknown origin) assessed as decrease in ATP consumption using phosphatidylinositol bisphosphate and 10 uM ATP as substrate measured after 60 mins by luminescence assay
pIC50: −log10 of the molar value.
attribute.measured: pIC50

{"mol": "NCC(=O)N1CCN(c2nc(N3CCOCC3)nc(-n3c(C(F)F)nc4ccccc43)n2)CC1", "attribute.measured": "pIC50", "observed.measurement": 5.82}

I = CN[C@@H](C)C(=O)N1CCN(c2nc(N3CCOCC3)nc(-n3c(C(F)F)nc4ccccc43)n2)CC1
II = NCCC(=O)N1CCN(c2nc(N3CCOCC3)nc(-n3c(C(F)F)nc4ccccc43)n2)CC1
Of the pair I and II , name the member with the lesser recorded pIC50. Write down the label of the entry you select. I
(I: 5.82, II: 6.14)

* * *

test.target: Phosphatidylinositol 4,5-bisphosphate 3-kinase catalytic subunit gamma isoform (Homo sapiens)
experiment.summary: Inhibition of PI3K-gamma (unknown origin) assessed as decrease in ATP consumption using phosphatidylinositol bisphosphate and 10 uM ATP as substrate measured after 60 mins by luminescence assay
attribute.measured: IC50 (µM)

a = CN[C@@H](C)C(=O)N1CCN(c2nc(N3CCOCC3)nc(-n3c(C(F)F)nc4ccccc43)n2)CC1
b = NCCC(=O)N1CCN(c2nc(N3CCOCC3)nc(-n3c(C(F)F)nc4ccccc43)n2)CC1
Please choose the item with the lower IC50 value from this pair: a and b // respond with label for picked entry b
(b: 3.9 µM, a: 8 µM)

* * *

test.target: Phosphatidylinositol 4,5-bisphosphate 3-kinase catalytic subunit gamma isoform (Homo sapiens)
experiment.summary: Inhibition of PI3K-gamma (unknown origin) assessed as decrease in ATP consumption using phosphatidylinositol bisphosphate and 10 uM ATP as substrate measured after 60 mins by luminescence assay
pIC50: −log10 of the molar value.
attribute.measured: pIC50

// below: answered compounds
{"mol": "N[C@H](Cc1ccccc1)C(=O)N1CCN(c2nc(N3CCOCC3)nc(-n3c(C(F)F)nc4ccccc43)n2)CC1", "pIC50": "< 5.00"}
{"mol": "O=C([C@@H]1CCCN1)N1CCN(c2nc(N3CCOCC3)nc(-n3c(C(F)F)nc4ccccc43)n2)CC1", "pIC50": "< 5.00"}

# evaluate next
The reported pIC50 of the compound `CN(C)CC(=O)N1CCN(c2nc(N3CCOCC3)nc(-n3c(C(F)F)nc4ccccc43)n2)CC1` was < 5.00
